Tested on: Poria monticola
Experiment Notes: Filter disk test, Poria monticola
Type: cell-based
Measurement Setup: 1% content of the solution; 3 weeks, +30° C.
Measurement Name: inhibition zone (IZ)

Completed entries (count: 3):
Smiles Input	Measurement Name	Result
CCC[CH2][Sn]([CH2]CCC)([O]N(N=O)C1CCCCC1)[O]N(N=O)C1CCCCC1	inhibition zone (IZ)	12-12 mm
CCCCCCC[CH2][Sn]([CH2]CCCCCCC)([O]N(N=O)C1CCCCC1)[O]N(N=O)C1CCCCC1	inhibition zone (IZ)	8-10 mm
CCC[CH2][Sn]([CH2]CCC)([CH2]CCC)[O]N(N=O)C1CCCCC1	inhibition zone (IZ)	15 mm

Next, consider the following compound.
response.value for "CCCC[CH2][Sn]([CH2]CCCC)([O]N(N=O)C1CCCCC1)[O]N(N=O)C1CCCCC1" (field: inhibition zone (IZ)) = 8-10 mm

* * *

Tested on: Paecilomyces varioti
Experiment Notes: Filter disk test, Paecilomyces varioti
Type: cell-based
Measurement Setup: 2% content of the solution; 3 weeks, +30° C.
I'd be grateful if you could share measured inhibition zone (IZ) for these entries.

Completed entries (count: 3):
Smiles Input	Measurement Name	Result
CCCC[CH2][Sn]([CH2]CCCC)([O]N(N=O)C1CCCCC1)[O]N(N=O)C1CCCCC1	inhibition zone (IZ)	10-12 mm
CCC[CH2][Sn]([CH2]CCC)([O]N(N=O)C1CCCCC1)[O]N(N=O)C1CCCCC1	inhibition zone (IZ)	10-12 mm
CCC[CH2][Sn]([CH2]CCC)([CH2]CCC)[O]N(N=O)C1CCCCC1	inhibition zone (IZ)	> 15 mm

response.value for "CCCCCCC[CH2][Sn]([CH2]CCCCCCC)([O]N(N=O)C1CCCCC1)[O]N(N=O)C1CCCCC1" (field: inhibition zone (IZ)) = 10-12 mm

* * *

I'd be grateful if you could share measured inhibition zone (IZ) for these entries.
Tested on: Poria monticola
Experiment Notes: Filter disk test, Poria monticola
Type: cell-based
Measurement Setup: 2% content of the solution; 3 weeks, +30° C.

Compound	Assayed System	inhibition zone (IZ)
CCCCCCC[CH2][Sn]([CH2]CCCCCCC)([O]N(N=O)C1CCCCC1)[O]N(N=O)C1CCCCC1 [DOT-HDO]	Poria monticola	8-10 mm
CCC[CH2][Sn]([CH2]CCC)([O]N(N=O)C1CCCCC1)[O]N(N=O)C1CCCCC1 [DBT-HDO]	Poria monticola	12-15 mm

# return inhibition zone (IZ) for each item in the list
1. CCC[CH2][Sn]([CH2]CCC)([CH2]CCC)[O]N(N=O)C1CCCCC1 [TBT-HDO]
2. CCCC[CH2][Sn]([CH2]CCCC)([O]N(N=O)C1CCCCC1)[O]N(N=O)C1CCCCC1 [DPT-HDO]

15 mm
10-12 mm

* * *

Tested on: Cladosporum herbarum
Experiment Notes: Filter disk test, Cladosporum herbarum
Assay type: cell-based
Measurement Setup: 1% content of the solution; 3 weeks, +30° C.
I'd be grateful if you could share measured inhibition zone (IZ) for these entries.

Completed entries (count: 3):
Smiles Input	inhibition zone (IZ)
CCCCCCC[CH2][Sn]([CH2]CCCCCCC)([O]N(N=O)C1CCCCC1)[O]N(N=O)C1CCCCC1	12-15 mm
CCC[CH2][Sn]([CH2]CCC)([O]N(N=O)C1CCCCC1)[O]N(N=O)C1CCCCC1	5-6 mm
CCCC[CH2][Sn]([CH2]CCCC)([O]N(N=O)C1CCCCC1)[O]N(N=O)C1CCCCC1	5-7 mm

Next, consider the following compound.
response.value for "CCC[CH2][Sn]([CH2]CCC)([CH2]CCC)[O]N(N=O)C1CCCCC1" (field: inhibition zone (IZ)) = > 15 mm

* * *

I'd be grateful if you could share measured inhibition zone (IZ) for these entries.
System: Paecilomyces varioti
Experiment Notes: Filter disk test, Paecilomyces varioti
Format: cell-based
Measurement Setup: 1% content of the solution; 3 weeks, +30° C.

Completed entries (count: 3):
Smiles Input	inhibition zone (IZ)
CCCC[CH2][Sn]([CH2]CCCC)([O]N(N=O)C1CCCCC1)[O]N(N=O)C1CCCCC1	8-10 mm
CCC[CH2][Sn]([CH2]CCC)([CH2]CCC)[O]N(N=O)C1CCCCC1	> 15 mm
CCC[CH2][Sn]([CH2]CCC)([O]N(N=O)C1CCCCC1)[O]N(N=O)C1CCCCC1	8-10 mm

Next, consider the following molecule.
response.value for "CCCCCCC[CH2][Sn]([CH2]CCCCCCC)([O]N(N=O)C1CCCCC1)[O]N(N=O)C1CCCCC1" (field: inhibition zone (IZ)) = 8-10 mm

* * *

Test system: Cladosporum herbarum
Experiment Notes: Filter disk test, Cladosporum herbarum
Format: cell-based
Measurement Setup: 2% content of the solution; 3 weeks, +30° C.
Measurement Name: inhibition zone (IZ)

Completed entries (count: 3):
Compound	Measurement Name	Result
CCC[CH2][Sn]([CH2]CCC)([O]N(N=O)C1CCCCC1)[O]N(N=O)C1CCCCC1 [DBT-HDO]	inhibition zone (IZ)	8-10 mm
CCCC[CH2][Sn]([CH2]CCCC)([O]N(N=O)C1CCCCC1)[O]N(N=O)C1CCCCC1 [DPT-HDO]	inhibition zone (IZ)	6-8 mm
CCCCCCC[CH2][Sn]([CH2]CCCCCCC)([O]N(N=O)C1CCCCC1)[O]N(N=O)C1CCCCC1 [DOT-HDO]	inhibition zone (IZ)	> 15 mm

Response field inhibition zone (IZ) (Cladosporum herbarum) for item CCC[CH2][Sn]([CH2]CCC)([CH2]CCC)[O]N(N=O)C1CCCCC1 [TBT-HDO] : > 15 mm
